Reported bioavailability values are given for each entry in this list.
# PROTOCOL_DESCRIPTION: Bioavailability in rat
# Type: ADME, organism-based
# ASSAY_SETUP: in vivo
Numbers only; they are read as %.

> print(dat)
                                 cpd.smiles      metric.name  experimental.value
1  N#CC1(c2ccc(F)cc2)CCN(CCCNC(=O)C2=CNC(=O)N[C@@H]2c2ccc(F)c(F)c2)CC1  bioavailability                   0
2  N#Cc1ccccc1C1(C#N)CCN(CCCNC(=O)C2=CNC(=O)N[C@@H]2c2ccc(F)c(F)c2)CC1  bioavailability                   0
3  CC1=C(C(=O)NCCCN2CCC(c3ccc(F)cc3)CC2)[C@@H](c2ccc(F)c(F)c2)N(C)C(=O)N1C  bioavailability                  17
4  CC1=C(C(=O)NCCCN2CCC(c3ccc(F)cc3C#N)CC2)[C@@H](c2ccc(F)c(F)c2)NC(=O)N1  bioavailability                   0
5  CN1C=C(C(=O)NCCCN2CCC(C#N)(c3ccc(F)cc3C#N)CC2)[C@@H](c2ccc(F)c(F)c2)NC1=O  bioavailability                   0
6  CC1=C(C(=O)NCCCN2CCC(c3ccc(F)cc3C#N)CC2)[C@@H](c2ccc(F)c(F)c2)NC(=O)N1C  bioavailability                  15

N#Cc1cc(F)ccc1C1CCN(CCCNC(=O)C2=CNC(=O)N[C@@H]2c2ccc(F)c(F)c2)CC1 yielded bioavailability of 0

Value of bioavailability reported for the compound COCC1=C(C(=O)NCCCN2CCC(c3ccc(F)cc3)CC2)[C@@H](c2ccc(F)c(F)c2)NC(=O)N1 is 26

Form field bioavailability, entry CC1=C(C(=O)NCCCN2CCC(c3ccccn3)CC2)[C@@H](c2ccc(F)c(F)c2)NC(=O)N1 : 0

The compound CN1C=C(C(=O)NCCCN2CCC(c3ccc(F)cc3C#N)CC2)[C@@H](c2ccc(F)c(F)c2)NC1=O showed bioavailability equal to 0

* * *

# ASSAY_SYSTEM: UniProt:P35368
# PROTOCOL_DESCRIPTION: Ability to displace [125I]- HEAT from human cloned Alpha-1B adrenergic receptor stably expressed in LM cells.
# Type: cell-based
Friendly reminder: Ki below 100 nM is 1.0, at or above is 0.0.

Example entries and their recorded answers appear below.
> print(dat)
                                 cpd.smiles  label
1  CN1C=C(C(=O)NCCCN2CCC(C#N)(c3ccc(F)cc3)CC2)[C@H](c2ccc(F)c(F)c2)NC1=O    0.0
2  CN1C=C(C(=O)NCCCN2CCC(C#N)(c3ccc(F)cc3)CC2)[C@@H](c2ccc(F)c(F)c2)NC1=O    1.0
3  CC1=C(C(=O)NCCCN2CCC(c3ccc(F)cc3)CC2)[C@@H](c2ccc(F)c(F)c2)N(C)C(=O)N1C    1.0

Query string: Does CC1=C(C(=O)NCCCN2CCC(c3ccc(F)cc3)CC2)[C@@H](c2ccc(F)c(F)c2)NC(=O)N1C have Ki strictly under 100 nM?
Result string: 0.0

Query string: # TODO verify Ki < 100 nM strictly for this compound: CC1=C(C(=O)NCCCN2CCC(c3ccc(F)cc3)CC2)[C@H](c2ccc(F)c(F)c2)N(C)C(=O)N1C
Result string: 1.0

* * *

# Species: Rattus norvegicus
# PROTOCOL_DESCRIPTION: Duration of action with repeated challenges of A61603 agonist in rat
# Assay type: functional
METRIC_NAME: Duration (h)
Respond with the bare value in h.

> print(dat)
                                 cpd.smiles  metric.name  measurement.unit  experimental.value
1  CN1C=C(C(=O)NCCCN2CCC(c3ccc(F)cc3C#N)CC2)[C@@H](c2ccc(F)c(F)c2)NC1=O     Duration                 h                   4
2  N#Cc1ccccc1C1(C#N)CCN(CCCNC(=O)C2=CNC(=O)N[C@@H]2c2ccc(F)c(F)c2)CC1     Duration                 h                   1
3  COCC1=C(C(=O)NCCCN2CCC(c3ccc(F)cc3C#N)CC2)[C@@H](c2ccc(F)c(F)c2)NC(=O)N1     Duration                 h                 1.5
4  O=C1NC=C(C(=O)NCCCN2CCC(O)(c3ccc(F)cc3)CC2)[C@@H](c2ccc(F)c(F)c2)N1     Duration                 h                 0.5
5  CC1=C(C(=O)NCCCN2CCC(C#N)(c3ccc(F)cc3C#N)CC2)[C@@H](c2ccc(F)c(F)c2)NC(=O)N1C     Duration                 h                   1
6  CN1C=C(C(=O)NCCCN2CCC(C#N)(c3ccc(F)cc3C#N)CC2)[C@@H](c2ccc(F)c(F)c2)NC1=O     Duration                 h                 3.5

According to the records, this molecule CC1=C(C(=O)NCCCN2CCC(c3ccc(F)cc3)CC2)[C@@H](c2ccc(F)c(F)c2)N(C)C(=O)N1C displays Duration of 1

Duration reported for this molecule COCC1=C(C(=O)NCCCN2CCC(c3ccccn3)CC2)[C@@H](c2ccc(F)c(F)c2)NC(=O)N1 : 0.25

Form: molecule = CC1=C(C(=O)NCCCN2CCC(c3ccc(F)cc3C#N)CC2)[C@@H](c2ccc(F)c(F)c2)NC(=O)N1 ; Duration = 1.5

response.value for CC1=C(C(=O)NCCCN2CCC(c3ccccn3)CC2)[C@@H](c2ccc(F)c(F)c2)NC(=O)N1 (field: Duration) = 0.5

Quick note, Duration for CC1=C(C(=O)NCCCN2CCC(C#N)(c3ccc(F)cc3)CC2)[C@@H](c2ccc(F)c(F)c2)NC(=O)N1C landed at 1.5

Field Duration (entry CC1=C(C(=O)NCCCN2CCC(c3ccc(F)cc3)CC2)[C@@H](c2ccc(F)c(F)c2)NC(=O)N1C ) reads 2.5

Form: molecule = O=C1NC=C(C(=O)NCCCN2CCC(c3ccc(F)cc3)CC2)[C@@H](c2ccc(F)c(F)c2)N1 ; Duration = 0.5

# Duration of N#CC1(c2ccc(F)cc2)CCN(CCCNC(=O)C2=CNC(=O)N[C@@H]2c2ccc(F)c(F)c2)CC1 = 0.75

In plain terms, N#Cc1ccccc1C1CCN(CCCNC(=O)C2=CNC(=O)N[C@@H]2c2ccc(F)c(F)c2)CC1 has a documented Duration of 0.5

The molecule identified as CC1=C(C(=O)NCCCN2CCC(c3ccc(F)cc3)CC2)[C@@H](c2ccc(F)c(F)c2)NC(=O)N1 registered its Duration at 0.5

* * *

Measured bioavailability accompanies every entry in the list below.
# PROTOCOL_DESCRIPTION: Bioavailability in rat
# Assay type: ADME, organism-based
# ASSAY_SETUP: in vivo
Response body: numeric value in %, unit text excluded.

Worked examples follow.
> print(dat)
                                 cpd.smiles  experimental.value
1  O=C1NC=C(C(=O)NCCCN2CCC(c3ccc(F)cc3)CC2)[C@@H](c2ccc(F)c(F)c2)N1                   0
2  CN1C=C(C(=O)NCCCN2CCC(C#N)(c3ccc(F)cc3)CC2)[C@H](c2ccc(F)c(F)c2)NC1=O                   8
3  CC1=C(C(=O)NCCCN2CCC(C#N)(c3ccc(F)cc3C#N)CC2)[C@@H](c2ccc(F)c(F)c2)NC(=O)N1C                   0
4  COCC1=C(C(=O)NCCCN2CCC(c3ccccn3)CC2)[C@@H](c2ccc(F)c(F)c2)NC(=O)N1                   0
5  O=C1NC=C(C(=O)NCCCN2CCC(O)(c3ccc(F)cc3)CC2)[C@@H](c2ccc(F)c(F)c2)N1                   0

// bioavailability value for N#Cc1ccccc1C1CCN(CCCNC(=O)C2=CNC(=O)N[C@@H]2c2ccc(F)c(F)c2)CC1 : 0

The compound listed as CC1=C(C(=O)NCCCN2CCC(c3ccccc3C#N)CC2)[C@@H](c2ccc(F)c(F)c2)NC(=O)N1 has a reported bioavailability of 0

* * *

Recorded measurements of Ki, one per entry
# ASSAY_SYSTEM: Alpha-1B adrenergic receptor (Homo sapiens, UniProt P35368)
# Sequence (P35368 whole entry): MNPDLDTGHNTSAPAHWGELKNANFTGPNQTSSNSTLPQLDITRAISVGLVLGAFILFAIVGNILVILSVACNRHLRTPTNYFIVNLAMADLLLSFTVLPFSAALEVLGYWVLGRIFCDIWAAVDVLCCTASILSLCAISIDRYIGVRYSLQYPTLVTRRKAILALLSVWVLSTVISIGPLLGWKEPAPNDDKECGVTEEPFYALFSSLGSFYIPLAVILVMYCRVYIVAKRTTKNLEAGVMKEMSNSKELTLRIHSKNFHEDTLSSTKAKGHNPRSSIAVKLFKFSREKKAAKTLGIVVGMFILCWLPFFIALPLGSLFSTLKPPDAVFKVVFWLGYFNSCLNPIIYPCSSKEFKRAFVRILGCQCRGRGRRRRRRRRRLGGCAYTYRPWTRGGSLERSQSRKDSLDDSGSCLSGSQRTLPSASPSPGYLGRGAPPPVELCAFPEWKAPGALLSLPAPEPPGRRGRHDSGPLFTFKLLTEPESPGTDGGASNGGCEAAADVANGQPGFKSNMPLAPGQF
# PROTOCOL_DESCRIPTION: Evaluated for the ability to displace [125I]- HEAT from human cloned Alpha-1B adrenergic receptor stably expressed in LM cells.
# Type: cell-based
// return numeric value only (unit: nM, not printed)

As a guide, the following entries are already answered.
> print(dat)
                                 cpd.smiles  experimental.value
1  COC(=O)N1C(=O)N(C)C(C)=C(C(=O)NCCCN2CCC(c3ccc(F)cc3)CC2)[C@H]1c1ccc(F)c(F)c1                  25
2  N#CC1(c2ccc(F)cc2)CCN(CCCNC(=O)C2=CNC(=O)N[C@@H]2c2ccc(F)c(F)c2)CC1                 140
3  CC1=C(C(=O)NCCCN2CCC(c3ccc(F)cc3C#N)CC2)[C@@H](c2ccc(F)c(F)c2)NC(=O)N1C                 130
4  CN1C=C(C(=O)NCCCN2CCC(c3ccc(F)cc3C#N)CC2)[C@@H](c2ccc(F)c(F)c2)NC1=O                 7.9
5  CN1C=C(C(=O)NCCCN2CCC(C#N)(c3ccc(F)cc3C#N)CC2)[C@@H](c2ccc(F)c(F)c2)N(C)C1=O                  72
6  CN1C=C(C(=O)NCCCN2CCC(C#N)(c3ccc(F)cc3C#N)CC2)[C@@H](c2ccc(F)c(F)c2)NC1=O                 440

From here, focus on the item given below.
Measured Ki of O=C1NC=C(C(=O)NCCCN2CCC(c3ccccn3)CC2)[C@@H](c2ccc(F)c(F)c2)N1 : 1850
